Just for reference, PubChem BioAssay AID1963861 is where these values come from.

system: 885724-159-R-J1-PDC KRAS PDC multicell spheroid viability; test: Anticancer human tumor 885724-159-R-J1-PDC patient-derived pancreatic adenocarcinoma cell line growth inhibition [KRAS2]; conditions: second compound 10 µM; first compound 0.0316 µM; hits give low values;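 also: spheroids exposed to agents for 7 days before readout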
ENDPOINT LABEL: viability, T/C (%)
Please reply with the bare figure in % and do not write the unit itself.

Guide cases for viability, T/C, answers given:
COc1cc2nccc(Oc3ccc(NC(=O)C4(C(=O)Nc5ccc(F)cc5)CC4)cc3)c2cc1OC + CNCc1ccccc1-c1csc(C(C)Nc2nc(C)nc3cc(OC)c(OC)cc23)c1 :: 0.39
COc1cc(Nc2ncc3c(n2)-c2ccc(Cl)cc2C(c2c(F)cccc2OC)=NC3)ccc1C(=O)O + COc1cc2nc(C)nc(NC(C)c3cc(N)cc(C(F)(F)F)c3)c2cc1OC1CCOC1 :: 83.4
CC(C)NCC(C(=O)N1CCN(c2ncnc3c2C(C)CC3O)CC1)c1ccc(Cl)cc1 (stereo not given) + CNCc1ccccc1-c1csc(C(C)Nc2nc(C)nc3cc(OC)c(OC)cc23)c1 :: 0.17

Query: Check the records and state viability, T/C for COC(=O)c1ccc2c(C(=Nc3ccc(N(C)C(=O)CN4CCN(C)CC4)cc3)c3ccccc3)c(O)[nH]c2c1 + CC1OCC2(CCN(c3cnc(Sc4ccnc(N)c4Cl)c(N)n3)CC2)C1N
Reply: 62

Query: Check the records and state viability, T/C for Cn1ncnc1[C@H]1c2n[nH]c(=O)c3cc(F)cc(c23)N[C@@H]1c1ccc(F)cc1 + C=CC(=O)N1CCN(c2nc(=O)n(-c3c(C)ccnc3C(C)C)c3nc(-c4c(O)cccc4F)c(F)cc23)C(C)C1
Reply: 82.2

Query: Check the records and state viability, T/C for CC1(C)CCC(CN2CCN(c3ccc(C(=O)NS(=O)(=O)c4ccc(NCC5CCOCC5)c([N+](=O)[O-])c4)c(Oc4cnc5[nH]ccc5c4)c3)CC2)=C(c2ccc(Cl)cc2)C1 + COc1cc2nc(C)nc(NC(C)c3cc(N)cc(C(F)(F)F)c3)c2cc1OC1CCOC1
Reply: 31.2

Query: Check the records and state viability, T/C for COC(=O)c1ccc2c(C(=Nc3ccc(N(C)C(=O)CN4CCN(C)CC4)cc3)c3ccccc3)c(O)[nH]c2c1 + CNCc1ccccc1-c1csc(C(C)Nc2nc(C)nc3cc(OC)c(OC)cc23)c1
Reply: 0.26

Query: Check the records and state viability, T/C for CC1(C)CCC(CN2CCN(c3ccc(C(=O)NS(=O)(=O)c4ccc(NCC5CCOCC5)c([N+](=O)[O-])c4)c(Oc4cnc5[nH]ccc5c4)c3)CC2)=C(c2ccc(Cl)cc2)C1 + CC1OCC2(CCN(c3cnc(Sc4ccnc(N)c4Cl)c(N)n3)CC2)C1N
Reply: 58

Query: Check the records and state viability, T/C for CC(=O)Nc1cccc(-n2c(=O)n(C3CC3)c(=O)c3c(Nc4ccc(I)cc4F)n(C)c(=O)c(C)c32)c1 + C=CC(=O)N1CCN(c2nc(=O)n(-c3c(C)ccnc3C(C)C)c3nc(-c4c(O)cccc4F)c(F)cc23)C(C)C1
Reply: 18.6

Query: Check the records and state viability, T/C for CCN1CCN(Cc2ccc(Nc3ncc(F)c(-c4cc(F)c5nc(C)n(C(C)C)c5c4)n3)nc2)CC1 + CC1OCC2(CCN(c3cnc(Sc4ccnc(N)c4Cl)c(N)n3)CC2)C1N
Reply: 63.2
